# system: HLA-DRB1*04:01 (Homo sapiens, UniProt P01903+P01911, A100K/A169T/F76Y/I96L/K127E/L162R/M171V/N62H/P40V/Q125Y/R42H/S133A/S149N/S66Y/V115G/V209L/W38E)
# Construct: EBV transformed homozygous cell lines were used as sources of MHC molecules; endogenous in cells; host or cells: EBV transformed homozygous cell lines
# experimental details: HLA class II peptide binding, inhibition of radiolabeled peptide binding to purified MHC
# test conditions: citrullinated 15-mer (X); purified MHC, inhibition of radiolabeled peptide binding; dash = IC50 >40,000 nM; read-out: DRB1*04:01 binding capacity, Cit peptide (IC50 nM)
Square brackets hold non-standard residues; d marks the D form. Peptide text beside a SMILES is read from it. Cit = NC(=O)NCCC[C@H](N)C(=O)O
Catalogue of IC50 readings, one per entry.
Write the value in nM as a bare number.

CC(C)C[C@H](NC(=O)[C@H](C)NC(=O)[C@H](CO)NC(=O)CNC(=O)[C@H](CC(C)C)NC(=O)[C@H](CO)NC(=O)[C@H](Cc1ccc(O)cc1)NC(=O)[C@@H](NC(=O)[C@H](CCCNC(=N)N)NC(=O)[C@@H](NC(=O)[C@H](CO)NC(=O)[C@@H](NC(=O)[C@@H](NC(=O)[C@@H](N)C(C)C)[C@@H](C)O)[C@@H](C)O)[C@@H](C)O)[C@@H](C)O)C(=O)N[C@@H](CCCNC(N)=O)C(=O)O [VTTSTRTYSLGSALX] (H-VTTSTRTYSLGSAL[Cit]-OH)    847
CSCC[C@H](NC(=O)[C@H](CCCNC(=N)N)NC(=O)[C@H](CCCNC(N)=O)NC(=O)[C@H](Cc1ccc(O)cc1)NC(=O)[C@H](CO)NC(=O)[C@H](CO)NC(=O)[C@H](CO)NC(=O)[C@H](CO)NC(=O)[C@@H](N)C(C)C)C(=O)N[C@@H](Cc1ccccc1)C(=O)NCC(=O)NCC(=O)N1CCC[C@H]1C(=O)NCC(=O)N[C@H](C(=O)O)[C@@H](C)O [VSSSSYXRMFGGPGT] (H-VSSSSY[Cit]RMFGGPGT-OH)    906
CC[C@H](C)[C@H](N)C(=O)N[C@@H](CC(=O)O)C(=O)N[C@H](C(=O)N[C@@H](CC(=O)O)C(=O)N[C@H](C(=O)N[C@@H](CO)C(=O)N[C@@H](CCCCN)C(=O)N1CCC[C@H]1C(=O)N[C@@H](CC(=O)O)C(=O)N[C@@H](CC(C)C)C(=O)N[C@H](C(=O)N[C@@H](C)C(=O)N[C@@H](C)C(=O)N[C@@H](CC(C)C)C(=O)N[C@@H](CCCNC(N)=O)C(=O)O)[C@@H](C)O)C(C)C)C(C)C [IDVDVSKPDLTAALX] (H-IDVDVSKPDLTAAL[Cit]-OH)    23500
CC(C)[C@H](NC(=O)[C@H](Cc1ccc(O)cc1)NC(=O)[C@H](CO)NC(=O)[C@H](CCCNC(N)=O)NC(=O)[C@H](CO)NC(=O)[C@H](CO)NC(=O)[C@H](CO)NC(=O)[C@@H]1CCCN1C(=O)[C@H](CCCNC(=N)N)NC(=O)[C@H](CO)NC(=O)[C@H](C)N)C(=O)N[C@H](C(=O)N[C@H](C(=O)N[C@@H](CO)C(=O)N[C@H](C(=O)O)[C@@H](C)O)[C@@H](C)O)[C@@H](C)O [ASRPSSSXSYVTTST] (H-ASRPSSS[Cit]SYVTTST-OH)    1630
CC(C)C[C@H](NC(=O)[C@H](C)NC(=O)[C@H](C)NC(=O)[C@@H](N)[C@@H](C)O)C(=O)N[C@@H](CCCNC(N)=O)C(=O)N[C@@H](CC(=O)O)C(=O)N[C@H](C(=O)N[C@@H](CCCNC(=N)N)C(=O)N[C@@H](CCC(N)=O)C(=O)N[C@@H](CCC(N)=O)C(=O)N[C@@H](Cc1ccc(O)cc1)C(=O)N[C@@H](CCC(=O)O)C(=O)N[C@@H](CO)C(=O)N[C@H](C(=O)N[C@@H](C)C(=O)O)C(C)C)C(C)C [TAALXDVRQQYESVA] (H-TAAL[Cit]DVRQQYESVA-OH)    8760

Please fill in: IC50 reported for CC(C)C[C@H](NC(=O)[C@H](C)NC(=O)[C@H](CO)NC(=O)CN)C(=O)N[C@@H](CCCNC(=N)N)C(=O)N1CCC[C@H]1C(=O)N[C@@H](CO)C(=O)N[C@H](C(=O)N[C@@H](CO)C(=O)N[C@@H](CCCNC(N)=O)C(=O)N[C@@H](CO)C(=O)N[C@@H](CC(C)C)C(=O)N[C@@H](Cc1ccc(O)cc1)C(=O)N[C@@H](C)C(=O)N[C@@H](CO)C(=O)O)[C@@H](C)O [GSALRPSTSXSLYAS] = 803

Please fill in: IC50 reported for CC(C)C[C@H](NC(=O)[C@H](C)NC(=O)[C@H](CO)NC(=O)CNC(=O)[C@H](CC(C)C)NC(=O)[C@H](CO)NC(=O)[C@H](Cc1ccc(O)cc1)NC(=O)[C@@H](NC(=O)[C@@H](N)CCCNC(=N)N)[C@@H](C)O)C(=O)N[C@@H](CCCNC(=N)N)C(=O)N1CCC[C@H]1C(=O)N[C@@H](CO)C(=O)N[C@H](C(=O)N[C@@H](CO)C(=O)N[C@@H](CCCNC(N)=O)C(=O)O)[C@@H](C)O [RTYSLGSALRPSTSX] (H-RTYSLGSALRPSTS[Cit]-OH) = 1090

Attribution: paper PMC5421785
